biological target: T1, Western Reserve B5 on cells infected with VVddeGFP Western Reserve virus (Vaccinia virus, Western Reserve strain, UniProt Q01227 18-317); test: flow cytometry, HT29 cells infected with WR VV
T1 construct: also called VV B5; WR
pEC50: −log10 of the molar value.
List of pEC50 values.

| binder | pEC50 |
| --- | --- |
| A048-H2L1 (antibody, V domains shown) VH: EVQLLESGGGLVQPGGSLRLSCAASGFSFSSSYYMCWVRQAPGKGLEWIACIYTSSGSAYYANWAKGRFTISRTSSTTVTLQMNSLRAEDTAVYYCVRNAVGSSYYLYLWGQGTLVTVSS VL: DIQMTQSPSTLSASVGDRVTITCQASQSVAGNNYLSWYQQKPGKAPKLLIYSVSTLASGVPSRFSGSGSGTEFTLTISSLQPDDFATYYCQGYYNDGIWAFGQGTKVEIK | 8.86 |
| A048-H4L2 (antibody, V domains shown) VH: EVQLLESGGGLVQPGGSLRLSCAASGFSFSSSYYMCWVRQAPGKGLEWIACIYTSSGSAYYADSVKGRFTISRTSSTTVTLQMNSLRAEDTAVYYCVRNAVGSSYYLYLWGQGTLVTVSS VL: AQVLTQSPSTLSASVGDRVTITCQASQSVAGNNYLSWYQQKPGKAPKLLIYSVSTLASGVPSRFSGSGSGTEFTLTISSLQPDDFATYYCQGYYNDGIWAFGQGTKVEIK | 8.18 |
| A048-H3L3 (antibody, V domains shown) VH: EVQLLESGGGLVQPGGSLRLSCAASGFSFSSSYYMCWVRQAPGKGLEWIACIYTSSGSAYYADSVKGRFTISRDNSKNTLYLQMNSLRAEDTAVYYCVRNAVGSSYYLYLWGQGTLVTVSS VL: DIQMTQSPSSLSASVGDRVTITCQASQSVAGNNYLSWYQQKPGKVPKLLIYSVSTLASGVPSRFSGSGSGTDFTLTISSLQPEDVATYYCQGYYNDGIWAFGQGTKVEIK | 8.74 |
